measured-target: Tau P301L (Homo sapiens, UniProt P10636, P618L)
Construct: expressed in transfected cells
Sequence (P10636 1-441 isoform P10636-8 P301L): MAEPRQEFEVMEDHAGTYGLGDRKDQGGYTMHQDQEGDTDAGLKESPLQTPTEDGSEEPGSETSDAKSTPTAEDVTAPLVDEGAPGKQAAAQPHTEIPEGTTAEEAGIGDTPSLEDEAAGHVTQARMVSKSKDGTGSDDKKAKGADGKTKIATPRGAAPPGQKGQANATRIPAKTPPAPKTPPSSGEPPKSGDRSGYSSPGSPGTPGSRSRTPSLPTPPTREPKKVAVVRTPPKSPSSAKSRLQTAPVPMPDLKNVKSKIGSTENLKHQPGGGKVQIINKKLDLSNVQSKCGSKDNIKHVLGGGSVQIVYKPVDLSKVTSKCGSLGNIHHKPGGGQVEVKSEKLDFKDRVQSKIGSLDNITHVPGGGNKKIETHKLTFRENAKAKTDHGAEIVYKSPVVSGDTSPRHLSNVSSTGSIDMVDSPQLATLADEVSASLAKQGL
procedure-details: In vitro tau degradation assay in CHOK1 Tau P301L cells (sarkosyl insoluble tau, WES)
Assay type: cell-based
condition-notes: CHO-K1; remaining tau protein in sarkosyl insoluble pellet; CHOK1 Tau P301L cells treated 48 hours with test compound at 1 μM, doxycycline removed for the last 24 hours; relative to DMSO doxycycline control; read-out: Tau Protein Degradation effect at 1 μM
observation-type: remaining activity at 1 µM

Q: What value of remaining activity at 1 µM has been recorded for this entry: Cc1cc2c(cn1)c1ccc(-c3cnc(N4CCC(CCN5CCN(c6ccc7c(c6)C(=O)N(C6CCC(=O)NC6=O)C7=O)CC5)CC4)c(F)c3)cc1n2C (stereo not drawn)
A: < 50%

Q: Consider the compound shown here: O=C1CCC(N2C(=O)c3ccc(N4CCN(CCCN5CCOC6(CCN(c7ccc8c9cnccc9n(C(F)F)c8c7)CC6)C5)CC4)cc3C2=O)C(=O)N1 (stereo not drawn) What is its recorded remaining activity at 1 µM?
A: < 50%

Q: Need remaining activity at 1 µM, item O=C1CCC(N2C(=O)c3ccc(N4CCN(CC5CCN(C[C@H]6C[C@H](Oc7ncc(-c8ccc9c%10cnccc%10n(C(F)F)c9c8)cc7F)C6)CC5)CC4)cc3C2=O)C(=O)N1 (stereo partly drawn)
A: < 50%

Q: I'd like to know its remaining activity at 1 µM. The compound in question is `Cc1ncsc1-c1ccc([C@H](C)NC(=O)[C@@H]2C[C@@H](O)CN2C(=O)[C@@H](c2cc(OCCN3CCN(CCN4CCC(O[C@H]5C[C@H](Oc6ccc(-c7ccc8c9cnccc9n(C)c8c7)cn6)C5)CC4)CC3)no2)C(C)C)cc1`
A: > 50%

Q: Recorded remaining activity at 1 µM for `Cc1ncsc1-c1ccc([C@H](C)NC(=O)[C@@H]2C[C@@H](O)CN2C(=O)[C@H](c2cc(OCCN3CCC(O[C@H]4C[C@H](Oc5ccc(-c6ccc7c8cnccc8n(C)c7c6)cn5)C4)CC3)no2)C(C)C)cc1` , please?
A: > 50%

Q: Bench note: what remaining activity at 1 µM did O=C1CCC(N2C(=O)c3ccc(N4CCN(CC(F)(F)C5CCN(c6ccc(-c7ccc8c(c7)[nH]c7ccncc78)cn6)CC5)CC4)cc3C2=O)C(=O)N1 (stereo not drawn) show?
A: < 50%

Q: Sample Cc1cnc(Nc2ccc3cnccc3c2)cc1N1CCC(CCN2CCN(c3ccc4c(c3)C(=O)N(C3CCC(=O)NC3=O)C4=O)CC2)CC1 (stereo not drawn) — what was its remaining activity at 1 µM?
A: < 50%

Q: Entry Cn1c2ccncc2c2ccc(-c3ccc(O[C@H]4C[C@H](CN5CCN(CCCCCOc6ccc7c(c6)C(=O)N(C6CCC(=O)NC6=O)C7=O)CC5)C4)nc3)cc21 (stereo partly drawn) : reported remaining activity at 1 µM = ?
A: < 50%

Q: Form field: reported remaining activity at 1 µM of Cc1ccc(-n2ccc3cc(N4CCC(CCN5CCN(c6ccc7c(c6)C(=O)N(C6CCC(=O)NC6=O)C7=O)CC5)CC4)ncc32)nc1 (stereo not drawn)
A: < 50%

* * *

The following compounds are shown together with reported remaining activity at 1 µM values.
measured-target: Tau P301L (Homo sapiens, UniProt P10636, P618L)
Construct: expressed in transfected cells
procedure-details: In vitro tau degradation assay in CHOK1 Tau P301L cells (sarkosyl insoluble tau, WES)
Assay type: cell-based
condition-notes: CHO-K1; remaining tau protein in sarkosyl insoluble pellet; CHOK1 Tau P301L cells treated 48 hours with test compound at 1 μM, doxycycline removed for the last 24 hours; relative to DMSO doxycycline control; read-out: Tau Protein Degradation effect at 1 μM

compound	observation-type	reading
O=C1CCC(N2C(=O)c3ccc(N4CCN(CC5CCN(c6ncc(-c7ccc8c9cnccc9n(C(F)F)c8c7)cc6C(F)(F)F)CC5)CC4)cc3C2=O)C(=O)N1 (stereo not shown) [Compound 494]	remaining activity at 1 µM	< 50%
O=C1CCC(N2C(=O)c3ccc(N4CCN(CCC5CCN(c6c(F)cc(-c7ccc8c9cnccc9n(C(F)F)c8n7)cc6F)CC5)CC4)cc3C2=O)C(=O)N1 (stereo not shown) [Compound 676]	remaining activity at 1 µM	< 50%
Cn1c2ccncc2c2ccc(-c3ccc(N4CC(C(=O)N5CCN(CCCCCOc6ccc7c(c6)C(=O)N(C6CCC(=O)NC6=O)C7=O)CC5)C4)nc3)cc21 (stereo not shown) [Compound 446]	remaining activity at 1 µM	> 50%

# input for lookup
Q: API: value(readout= remaining activity at 1 µM, system= Tau P301L (Homo sapiens, UniProt P10636, P618L), query= Cn1c2ccncc2c2ccc(-c3ccc(OC4CC5(C4)CN(C(=O)CC4CCN(CC6CN(c7ccc8c(c7)C(=O)N(C7CCC(=O)NC7=O)C8=O)C6)CC4)C5)nc3)cc21 (stereo not shown) [Compound 472] )
A: < 50%
